Provide the recorded total protein half-life in vivo for the entries that follow.
- PROCEDURE DETAILS: total protein half-life in vivo (active degradation + dilution); higher = more stable protein
- CONDITIONS: wild type E. coli NCM3722; growth: C-lim chemostat; doubling time 6 h
Expressed in h, but write only the number.

Quick note, total protein half-life in vivo for MHPRFQTAFAQLADNLQSALEPILADKYFPALLTGEQVSSLKSATGLDEDALAFALLPLAAACARTPLSNFNVGAIARGVSGTWYFGANMEFIGATMQQTVHAEQSAISHAWLSGEKALAAITVNYTPCGHCRQFMNELNSGLDLRIHLPGREAHALRDYLPDAFGPKDLEIKTLLMDEQDHGYALTGDALSQAAIAAANRSHMPYSKSPSGVALECKDGRIFSGSYAENAAFNPTLPPLQGALILLNLKGYDYPDIQRAVLAEKADAPLIQWDATSATLKALGCHSIDRVLLA [P0ABF6] landed at 6.09

Quick note, total protein half-life in vivo for MKRTKSIRHASFRKNWSARHLTPVALAVATVFMLAGCEKSDETVSLYQNADDCSAANPGKSAECTTAYNNALKEAERTAPKYATREDCVAEFGEGQCQQAPAQAGMAPENQAQAQQSSGSFWMPLMAGYMMGRLMGGGAGFAQQPLFSSKNPASPAYGKYTDATGKNYGAAQPGRTMTVPKTAMAPKPATTTTVTRGGFGESVAKQSTMQRSATGTSSRSMGG [P0ADT2] landed at 3.71

Quick note, total protein half-life in vivo for MVKLPPLSLYIHIPWCVQKCPYCDFNSHALKGEVPHDDYVQHLLNDLDNDVAYAQGREVKTIFIGGGTPSLLSGPAMQTLLDGVRARLPLAADAEITMEANPGTVEADRFVDYQRAGVNRISIGVQSFSEEKLKRLGRIHGPQEAKRAAKLASGLGLRSFNLDLMHGLPDQSLEEALGDLRQAIELNPPHLSWYQLTIEPNTLFGSRPPVLPDDDALWDIFEQGHQLLTAAGYQQYETSAYAKPGYQCQHNLNYWRFGDYIGIGCGAHGKVTFPDGRILRTTKTRHPRGFMQGRYLESQRDVEATDKPFEFFMNRFRLLEAAPRVEFIAYTGLCEDVIRPQLDEAIAQGYLTECADYWQITEHGKLFLNSLLELFLAE landed at 4.82

----------
- PROCEDURE DETAILS: total protein half-life in vivo (active degradation + dilution); higher = more stable protein
- CONDITIONS: wild type E. coli NCM3722; growth: N-lim chemostat; doubling time 12 h
Provide the recorded total protein half-life in vivo for the entries that follow.
Note: state the figure and append the unit.

Quick note, total protein half-life in vivo for MEYQHWLREAISQLQASESPRRDAEILLEHVTGRGRTFILAFGETQLTDEQCQQLDALLTRRRDGEPIAHLTGVREFWSLPLFVSPATLIPRPDTECLVEQALARLPEQPCRILDLGTGTGAIALALASERPDCEIIAVDRMPDAVSLAQRNAQHLAIKNIHILQSDWFSALAGQQFAMIVSNPPYIDEQDPHLQQGDVRFEPLTALVAADSGMADIVHIIEQSRNALVSGGFLLLEHGWQQGEAVRQAFILAGYHDVETCRDYGDNERVTLGRYYQ [P0ACC1] landed at 5.79 h

Quick note, total protein half-life in vivo for MRWLPFIAIFLYVYIEISIFIQVAHVLGVLLTLVLVIFTSVIGMSLVRNQGFKNFVLMQQKMAAGENPAAEMIKSVSLIIAGLLLLLPGFFTDFLGLLLLLPPVQKHLTVKLMPHLRFSRMPGGGFSAGTGGGNTFDGEYQRKDDERDRLDHKDDRQD landed at 14.2 h

Quick note, total protein half-life in vivo for METKNLTIGERIRYRRKNLKHTQRSLAKALKISHVSVSQWERGDSEPTGKNLFALSKVLQCSPTWILFGDEDKQPTPPVEKPVALSPKELELLELFNALPESEQDTQLAEMRARVKNFNKLFEELLKARQRTNKR landed at 10.2 h

Quick note, total protein half-life in vivo for MRLLPLVAAATAAFLVVACSSPTPPRGVTVVNNFDAKRYLGTWYEIARFDHRFERGLEKVTATYSLRDDGGLNVINKGYNPDRGMWQQSEGKAYFTGAPTRAALKVSFFGPFYGGYNVIALDREYRHALVCGPDRDYLWILSRTPTISDEVKQEMLAVATREGFDVSKFIWVQQPGS [P0A901] landed at 11.8 h

----------
Provide the recorded total protein half-life in vivo for the entries that follow.
- PROCEDURE DETAILS: total protein half-life in vivo (active degradation + dilution); higher = more stable protein
- CONDITIONS: E. coli NCM3722 delta-clpP delta-lon delta-hslV; growth: N-lim chemostat; doubling time 6 h
Expressed in h, but write only the number.

Quick note, total protein half-life in vivo for MLEILYQDEWLVAVNKPSGWLVHRSWLDRDEKVVVMQTVRDQIGQHVFTAHRLDRPTSGVLLMGLSSEAGRLLAQQFEQHQIQKRYHAIVRGWLMEEAVLDYPLVEELDKIADKFAREDKGPQPAVTHYRGLATVEMPVATGRYPTTRYGLVELEPKTGRKHQLRRHLAHLRHPIIGDSKHGDLRQNRSGAEHFGLQRLMLHASQLSLTHPFTGEPLTIHAGLDDTWMQALSQFGWRGLLPENERVEFSAPSGQDGEISS [P0AA41] landed at 4.78

Quick note, total protein half-life in vivo for MIYIGLPQWSHPKWVRLGITSLEEYARHFNCVEGNTTLYALPKPEVVLRWREQTTDDFRFCFKFPATISHQAALRHCDDLVTEFLTRMSPLAPRIGQYWLQLPATFGPRELPALWHFLDSLPGEFNYGVEVRHPQFFAKGEEEQTLNRGLHQRGVNRVILDSRPVHAARPHSEAIRDAQRKKPKVPVHAVLTATNPLIRFIGSDDMTQNRELFQVWLQKLAQWHQTTTPYLFLHTPDIAQAPELVHTLWEDLRKTLPEIGAVPAIPQQSSLF landed at 4.97

----------
- PROCEDURE DETAILS: total protein half-life in vivo (active degradation + dilution); higher = more stable protein
- CONDITIONS: wild type E. coli NCM3722; growth: C-lim chemostat; doubling time 6 h
PROPERTY NAME: total protein half-life in vivo
Note: state the figure and append the unit.

Quick note, total protein half-life in vivo for MSHVELQPGFDFQQAGKEVLAIERECLAELDQYINQNFTLACEKMFWCKGKVVVMGMGKSGHIGRKMAATFASTGTPSFFVHPGEAAHGDLGMVTPQDVVIAISNSGESSEITALIPVLKRLHVPLICITGRPESSMARAADVHLCVKVAKEACPLGLAPTSSTTATLVMGDALAVALLKARGFTAEDFALSHPGGALGRKLLLRVNDIMHTGDEIPHVKKTASLRDALLEVTRKNLGMTVICDDNMMIEGIFTDGDLRRVFDMGVDVRQLSIADVMTPGGIRVRPGILAVEALNLMQSRHITSVMVADGDHLLGVLHMHDLLRAGVV landed at 5.27 h

Quick note, total protein half-life in vivo for MKIFLENLYHSDCYFLPIRDNQQVLVGVELITHFSSEDGTVRIPTSRVIAQLTEEQHWQLFSEQLELLKSCQHFFIQHKLFAWLNLTPQVATLLLERDNYAGELLKYPFIELLINENYPHLNEGKDNRGLLSLSQVYPLVLGNLGAGNSTMKAVFDGLFTRVMLDKSFIQQQITHRSFEPFIRAIQAQISPCCNCIIAGGIDTAEILAQITPFDFHALQGCLWPAVPINQITTLVQR landed at 6.47 h

Quick note, total protein half-life in vivo for MKQPGEELQETLTELDDRAVVDYLIKNPEFFIRNARAVEAIRVPHPVRGTVSLVEWHMARARNHIHVLEENMALLMEQAIANEGLFYRLLYLQRSLTAASSLDDMLMRFHRWARDLGLAGASLRLFPDRWRLGAPSNHTHLALSRQSFEPLRIQRLGQEQHYLGPLNGPELLVVLPEAKAVGSVAMSMLGSDADLGVVLFTSRDASHYQQGQGTQLLHEIALMLPELLERWIERV landed at 2.35 h

Quick note, total protein half-life in vivo for MRVLVVEDNALLRHHLKVQIQDAGHQVDDAEDAKEADYYLNEHIPDIAIVDLGLPDEDGLSLIRRWRSNDVSLPILVLTARESWQDKVEVLSAGADDYVTKPFHIEEVMARMQALMRRNSGLASQVISLPPFQVDLSRRELSINDEVIKLTAFEYTIMETLIRNNGKVVSKDSLMLQLYPDAELRESHTIDVLMGRLRKKIQAQYPQEVITTVRGQGYLFELR landed at 5.04 h

Quick note, total protein half-life in vivo for MKFELDTTDGRARRGRLVFDRGVVETPCFMPVGTYGTVKGMTPEEVEATGAQIILGNTFHLWLRPGQEIMKLHGDLHDFMQWKGPILTDSGGFQVFSLGDIRKITEQGVHFRNPINGDPIFLDPEKSMEIQYDLGSDIVMIFDECTPYPADWDYAKRSMEMSLRWAKRSRERFDSLGNKNALFGIIQGSVYEDLRDISVKGLVDIGFDGYAVGGLAVGEPKADMHRILEHVCPQIPADKPRYLMGVGKPEDLVEGVRRGIDMFDCVMPTRNARNGHLFVTDGVVKIRNAKYKSDTGPLDPECDCYTCRNYSRAYLHHLDRCNEILGARLNTIHNLRYYQRLMAGLRKAIEEGKLESFVTDFYQRQGREVPPLNVD [P0A847] landed at 6.4 h

Quick note, total protein half-life in vivo for MFNSDNLRLDGKCAIITGAGAGIGKEIAITFATAGASVVVSDINADAANHVVDEIQQLGGQAFACRCDITSEQELSALADFAISKLGKVDILVNNAGGGGPKPFDMPMADFRRAYELNVFSFFHLSQLVAPEMEKNGGGVILTITSMAAENKNINMTSYASSKAAASHLVRNMAFDLGEKNIRVNGIAPGAILTDALKSVITPEIEQKMLQHTPIRRLGQPQDIANAALFLCSPAASWVSGQILTVSGGGVQELN [P0AET8] landed at 5.51 h

Quick note, total protein half-life in vivo for MTNPQFAGHPFGTTVTAETLRNTFAPLTQWEDKYRQLIMLGKQLPALPDELKAQAKEIAGCENRVWLGYTVAENGKMHFFGDSEGRIVRGLLAVLLTAVEGKTAAELQAQSPLALFDELGLRAQLSASRSQGLNALSEAIIAATKQV [P0AGF2] landed at 5.18 h

Quick note, total protein half-life in vivo for MKRYTPDFPEMMRLCEMNFSQLRRLLPRNDAPGETVSYQVANAQYRLTIVESTRYTTLVTIEQTAPAISYWSLPSMTVRLYHDAMVAEVCSSQQIFRFKARYDYPNKKLHQRDEKHQINQFLADWLRYCLAHGAMAIPVY [P0ADU7] landed at 2.76 h

Quick note, total protein half-life in vivo for MSEKLQKVLARAGHGSRREIESIIEAGRVSVDGKIAKLGDRVEVTPGLKIRIDGHLISVRESAEQICRVLAYYKPEGELCTRNDPEGRPTVFDRLPKLRGARWIAVGRLDVNTCGLLLFTTDGELANRLMHPSREVEREYAVRVFGQVDDAKLRDLSRGVQLEDGPAAFKTIKFSGGEGINQWYNVTLTEGRNREVRRLWEAVGVQVSRLIRVRYGDIPLPKGLPRGGWTELDLAQTNYLRELVELPPETSSKVAVEKDRRRMKANQIRRAVKRHSQVSGGRRSGGRNNNG landed at 5.79 h

Quick note, total protein half-life in vivo for MLVSCAMRLHSGVFPDYAEKLPQEEKMEKEDSFPQRVWQIVAAIPEGYVTTYGDVAKLAGSPRAARQVGGVLKRLPEGSTLPWHRVVNRHGTISLTGPDLQRQRQALLAEGVMVSGSGQIDLQRYRWNY [P0AFP2] landed at 4.04 h

Quick note, total protein half-life in vivo for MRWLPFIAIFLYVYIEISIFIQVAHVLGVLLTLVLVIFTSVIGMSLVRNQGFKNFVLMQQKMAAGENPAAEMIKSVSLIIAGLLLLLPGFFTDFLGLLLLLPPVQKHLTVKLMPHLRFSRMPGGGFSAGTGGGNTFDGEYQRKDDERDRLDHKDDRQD landed at 7.17 h

Quick note, total protein half-life in vivo for MFQLSVQDIHPGEKAGDKEEAIRQVAAALVQAGNVAEGYVNGMLAREQQTSTFLGNGIAIPHGTTDTRDQVLKTGVQVFQFPEGVTWGDGQVAYVAIGIAASSDEHLGLLRQLTHVLSDDSVAEQLKSATTAEELRALLMGEKQSEQLKLDNEMLTLDIVASDLLTLQALNAARLKEAGAVDATFVTKAINEQPLNLGQGIWLSDSAEGNLRSAIAVSRAANAFDVDGETAAMLVSVAMNDDQPIAVLKRLADLLLDNKADRLLKADAATLLALLTSDDAPTDDVLSAEFVVRNEHGLHARPGTMLVNTIKQFNSDITVTNLDGTGKPANGRSLMKVVALGVKKGHRLRFTAQGADAEQALKAIGDAIAAGLGEGA landed at 5.74 h
